Where these numbers come from: patent US20180215833A1

- Assay Target: human c-Met on cells (MKN-45, A549, HPAF, BxPC3, NCI-H441) (human, UniProt P08581 25-1390)
- Sequence (P08581 25-1390): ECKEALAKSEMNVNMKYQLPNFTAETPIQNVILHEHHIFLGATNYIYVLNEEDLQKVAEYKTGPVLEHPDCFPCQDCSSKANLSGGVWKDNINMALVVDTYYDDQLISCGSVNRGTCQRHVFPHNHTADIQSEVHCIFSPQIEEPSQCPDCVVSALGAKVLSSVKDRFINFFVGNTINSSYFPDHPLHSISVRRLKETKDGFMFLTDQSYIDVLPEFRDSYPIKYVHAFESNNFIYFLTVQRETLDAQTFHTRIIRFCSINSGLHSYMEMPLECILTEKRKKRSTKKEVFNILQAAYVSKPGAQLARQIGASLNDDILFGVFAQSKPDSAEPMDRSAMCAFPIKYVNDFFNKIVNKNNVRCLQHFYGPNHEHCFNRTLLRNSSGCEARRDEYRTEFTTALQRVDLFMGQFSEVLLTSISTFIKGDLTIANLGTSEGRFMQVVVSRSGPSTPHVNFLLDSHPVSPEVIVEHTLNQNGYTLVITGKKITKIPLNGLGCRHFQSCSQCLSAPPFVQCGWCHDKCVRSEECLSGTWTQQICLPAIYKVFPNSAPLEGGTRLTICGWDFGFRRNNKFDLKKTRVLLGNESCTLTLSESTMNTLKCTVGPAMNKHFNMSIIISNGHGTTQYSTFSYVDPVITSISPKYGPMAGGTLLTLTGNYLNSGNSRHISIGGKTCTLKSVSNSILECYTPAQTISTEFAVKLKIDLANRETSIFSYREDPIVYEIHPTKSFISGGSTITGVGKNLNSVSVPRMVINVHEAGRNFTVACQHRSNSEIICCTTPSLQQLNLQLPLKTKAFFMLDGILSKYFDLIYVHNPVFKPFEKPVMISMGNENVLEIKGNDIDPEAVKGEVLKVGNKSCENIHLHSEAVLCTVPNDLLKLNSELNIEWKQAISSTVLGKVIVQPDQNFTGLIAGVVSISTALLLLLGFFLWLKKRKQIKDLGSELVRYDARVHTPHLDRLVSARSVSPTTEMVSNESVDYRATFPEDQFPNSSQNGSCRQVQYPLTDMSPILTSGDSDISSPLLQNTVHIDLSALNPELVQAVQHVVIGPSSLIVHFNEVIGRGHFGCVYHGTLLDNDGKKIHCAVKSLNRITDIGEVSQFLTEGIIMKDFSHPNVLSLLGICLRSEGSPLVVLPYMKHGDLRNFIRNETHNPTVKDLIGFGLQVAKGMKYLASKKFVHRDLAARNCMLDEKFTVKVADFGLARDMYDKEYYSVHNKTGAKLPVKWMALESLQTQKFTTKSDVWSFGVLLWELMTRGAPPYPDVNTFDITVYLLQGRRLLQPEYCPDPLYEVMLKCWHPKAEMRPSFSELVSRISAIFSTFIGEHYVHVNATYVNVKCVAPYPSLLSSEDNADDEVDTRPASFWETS
- Test Details: cell-based or functional assay
Measurement Label: ADCC, specific lysis of MKN-45 cells, EC50 (ng/mL)
Enter your answer as a number in ng/mL; do not include the unit.

>  <Binder>
40B8 (antibody, V domains shown) VH: EVQLVQPGAELRNPGASVKVSCKASGYTFTNYVIDWVRQAPGQGLEWMGRIDPENGGTRYAQKFQGRVTFTADTSTSTAYVELSNLRSEDTAVYYCARLEDYELAYDYWGQGTQVTVSS VL: DIVMTQTPSSVTASAGEKVTINCKSSQSVLLSSNQKNYLAWYQQRLGQSPRLLIYWASTRESGVPDRFSGSGSTTDFTLTISSFQPEDAAVYYCQQGVSFPLTFGQGTKVELK

>  <Unit Spec>
ng/mL

>  <Number>
4.6

$$$$
>  <Binder>
36C4 (antibody, V domains shown, also called mAb 36C4; SIMPLE antibody 36C4) VH: QVQLVESGPGLVKPSQTLSLTCAVSGGSITTNYYYWSWIRQSPGKGLEWMGVIAYDGSTDYSPSLKSRTSISRDTSKNQFSLQLSSVTPEDTAVYYCARDVRVIATGWATANALDAWGQGTLVTVSS VL: QSVLTQPPSVSGSPGKTVTISCAGTSSDVGYGNYVSWYQQLPGTAPKLLIFAVSYRASGIPDRFSGSKSGNTAFLTISGLQSEDEADYYCASYRSSNNAAVFGGGTHLTVL

>  <Unit Spec>
ng/mL

>  <Number>
5

$$$$

Let us move to another entry and its ADCC, specific lysis of MKN-45 cells, EC50.
Task: Retrieve ADCC, specific lysis of MKN-45 cells, EC50 measured for chimeric 224G11 (antibody, human IgG1, V domains shown) VH: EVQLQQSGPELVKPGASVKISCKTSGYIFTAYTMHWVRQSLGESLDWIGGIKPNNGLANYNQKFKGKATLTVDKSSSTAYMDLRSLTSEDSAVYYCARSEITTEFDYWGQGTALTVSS VL: DIVLTQSPASLAVSLGQRATISCRASESVDSYANSFMHWYQQKPGQPPKLLIYRASNLESGIPARFSGSGSRTDFTLTINPVEADDVATYYCQQSKEDPLTFGSGTKLEMK and print it.
Result: 2.8
